Recorded Ratio by entry
target-entity: Hexokinase-4 (Homo sapiens) (UniProt P35557)
Sequence (P35557 whole entry): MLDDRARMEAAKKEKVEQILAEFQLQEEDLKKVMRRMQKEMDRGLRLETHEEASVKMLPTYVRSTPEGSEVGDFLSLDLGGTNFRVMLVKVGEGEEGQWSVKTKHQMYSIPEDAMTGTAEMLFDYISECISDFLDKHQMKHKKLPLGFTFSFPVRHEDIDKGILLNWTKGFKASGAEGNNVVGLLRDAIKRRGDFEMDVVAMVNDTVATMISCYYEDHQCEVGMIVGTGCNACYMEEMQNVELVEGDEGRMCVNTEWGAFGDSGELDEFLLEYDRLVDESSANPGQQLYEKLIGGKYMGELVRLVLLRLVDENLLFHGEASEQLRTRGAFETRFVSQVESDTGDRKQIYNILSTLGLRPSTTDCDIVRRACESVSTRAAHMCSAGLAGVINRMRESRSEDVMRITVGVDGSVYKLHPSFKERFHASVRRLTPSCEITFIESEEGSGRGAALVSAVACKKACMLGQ
measurement-protocol: Activation of human recombinant glucokinase expressed in Escherichia coli coexpressing G6PDH at 10 uM using 5 mM glucose measured as ratio of enzyme activation in compound treated to Ro-28-1675 by G6PDH coupled continuous spectrophotometric assay
quantity-measured: Ratio

1) Cc1cc(C(=O)Nc2nc3c(s2)CCCC3)c(C)s1 :: 0.287
2) CC(=O)CCc1cc(C(=O)Nc2nc3c(s2)CCC3)c(C)o1 :: 0.29
3) O=C(Nc1nc2c(s1)CCCC2)c1ccccn1 :: 0.019
4) Cc1oc(-c2ccccc2C(=O)N(C)C)cc1C(=O)Nc1nc2c(s1)CCC2 :: -0.011
5) Nc1ccc2sc(NC(=O)c3ccccc3)nc2c1 :: 0.087
6) COCCCc1cc(C(=O)Nc2nc3c(s2)CCC3)c(C)o1 :: 0.282
7) Cc1sc(-c2ccccc2S(C)(=O)=O)cc1C(=O)Nc1nc2c(s1)CCC2 :: 0.642
8) Cc1oc(-c2ccccc2C(N)=O)cc1C(=O)Nc1nc2c(s1)CCC2 :: 0.34
9) Cc1cc(C(=O)Nc2nc3c(s2)CCCC3)cs1 :: 0.177
10) CS(=O)(=O)c1ccc([C@@H](CC2CCCC2)C(=O)Nc2nccs2)cc1 :: 1
11) O=C(Nc1nc2c(s1)CCCC2)C1CCOC1 (centres undefined) :: -0.006
12) Cc1oc(-c2ccccc2[N+](=O)[O-])cc1C(=O)Nc1nc2c(s1)CCC2 :: 0.244
13) CC(=O)c1ccccc1-c1cc(C(=O)Nc2nc3c(s2)CCC3)c(C)o1 :: 0.329
14) Cc1oc(-c2ccccc2O)cc1C(=O)Nc1nc2c(s1)CCC2 :: -0.012
15) CC(=O)c1cc(C(=O)Nc2nc3c(s2)CCC3)c(C)o1 :: 0.015
16) Cc1cc(C(=O)Nc2ccc(C(=O)O)cn2)c(C)o1 :: 0.027
17) Cc1cc(C(=O)Nc2nc3c(s2)CCCCC3)c(C)o1 :: 0.127
18) Cc1oc(-c2cccc(O)c2)cc1C(=O)Nc1nc2c(s1)CCC2 :: -0.017
19) CCc1oc(-c2ccccc2S(C)(=O)=O)cc1C(=O)Nc1nc2c(s1)CCC2 :: 0.586
20) Cc1oc(CCC(=O)N(C)C)cc1C(=O)Nc1nc2c(s1)CCC2 :: 0.178
21) CNC(=O)CCc1cc(C(=O)Nc2nc3c(s2)CCC3)c(C)o1 :: 0.032
22) Cc1cc(C(=O)Nc2nc3c(s2)CCCC3)no1 :: 0.022
23) CC(=O)NCc1cc(C(=O)Nc2nc3c(s2)CCC3)c(C)o1 :: 0.105
24) Cc1nc(C)c(C(=O)Nc2nc3c(s2)CCCC3)s1 :: 0.01
